Target protein (sequence): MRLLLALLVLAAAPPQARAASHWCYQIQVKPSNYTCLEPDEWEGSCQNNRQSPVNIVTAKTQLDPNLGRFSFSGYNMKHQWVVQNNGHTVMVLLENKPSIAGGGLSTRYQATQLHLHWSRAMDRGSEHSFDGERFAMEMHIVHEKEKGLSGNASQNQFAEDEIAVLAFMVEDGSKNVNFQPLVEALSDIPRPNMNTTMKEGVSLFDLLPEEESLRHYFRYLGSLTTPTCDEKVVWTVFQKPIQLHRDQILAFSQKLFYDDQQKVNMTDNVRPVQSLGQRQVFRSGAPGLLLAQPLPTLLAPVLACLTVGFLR
pKi: −log10 of the molar value.
Field: pKi. System: the protein given by its sequence. Provenance: assorted publications.
MEASURED PARAMETER: pKi

>>> recorded_number("NCC(=O)Nc1ccc(S(N)(=O)=O)cc1Br")
7.14
>>> recorded_number("Cc1cc(C)[n+](CC(=O)Nc2ccc(S(N)(=O)=O)cc2Br)c(C)c1")
7.11
>>> recorded_number("CCCCC(=O)Nc1ccc(S(N)(=O)=O)cc1")
5.63
>>> recorded_number("NS(=O)(=O)c1ccc(N/C(S)=N/C(Cc2ccccc2)C(=O)O)cc1 (configuration not stated)")
7.89
>>> recorded_number("Cn1nc(S(N)(=O)=O)s/c1=N\\C(=O)CN")
7.15
>>> recorded_number("NCC(=O)NS(=O)(=O)c1nc2ccc(O)cc2s1")
7.16
>>> recorded_number("Cc1cc(C)[n+](CC(=O)Nc2cc(Cl)c(S(N)(=O)=O)cc2S(N)(=O)=O)c(C)c1")
7.19
>>> recorded_number("Cn1nc(S(N)(=O)=O)s/c1=N/S(=O)(=O)c1ccc(NS(=O)(=O)C(F)(F)C(F)(F)C(F)(F)C(F)(F)F)cc1")
7.62
>>> recorded_number("NS(=O)(=O)c1ccc(NS(=O)(=O)c2ccc(F)cc2)cc1")
7.82
>>> recorded_number("NS(=O)(=O)c1ccc(NC(=O)CCCCC(F)(F)C(F)(F)F)cc1")
6.22
>>> recorded_number("CCCC(CCC)C(=O)NCCc1ccc(S(N)(=O)=O)cc1")
6.70
>>> recorded_number("NS(=O)(=O)c1cc(S(N)(=O)=O)c(NSC(=S)N2CCOCC2)c(Cl)c1Cl")
7.31
>>> recorded_number("NS(=O)(=O)c1nc2ccc(NC(=O)CNCC(=O)O)cc2s1")
7.85
>>> recorded_number("Cc1cc(C)[n+](CC(=O)Nc2cc(C(F)(F)F)c(S(N)(=O)=O)cc2S(N)(=O)=O)c(C)c1")
7.24
>>> recorded_number("NS(=O)(=O)c1ccc(NS(=O)(=O)c2ccc(NC(=O)c3c(F)c(F)c(F)c(F)c3F)cc2)cc1")
7.41
>>> recorded_number("Cn1cccc1/C=N/Cc1ccc(S(N)(=O)=O)cc1")
8.00
>>> recorded_number("NS(=O)(=O)c1ccc(NC(=O)CN(CCOCCOCCN(CC(=O)O)CC(=O)Nc2ccc(S(N)(=O)=O)cc2Br)CC(=O)O)c(Br)c1")
7.60
>>> recorded_number("NS(=O)(=O)c1ccccc1NC(=O)Nc1c(F)c(F)c(F)c(F)c1F")
6.31
>>> recorded_number("NS(=O)(=O)c1nnc(NC(=O)c2ccccc2)s1")
6.79
>>> recorded_number("NS(=O)(=O)c1ccc(C[n+]2c(-c3ccccc3)cc(-c3ccccc3)cc2-c2ccccc2)cc1")
5.71
>>> recorded_number("CCc1cc(-c2ccccc2)cc(CC)[n+]1CC(=O)OCCc1ccc(S(N)(=O)=O)cc1")
7.08
>>> recorded_number("C[C@H](CCC(=O)NCc1ccc(S(N)(=O)=O)cc1)[C@H]1CC[C@H]2[C@@H]3CC[C@@H]4C[C@H](O)CC[C@]4(C)[C@H]3C[C@H](O)[C@]12C")
6.63
>>> recorded_number("NS(=O)(=O)c1ccc(NC(=O)c2ccccc2)cc1")
6.75
>>> recorded_number("Cc1ccc(-c2cc(C(F)(F)F)nn2-c2ccc(S(N)(=O)=O)cc2)cc1")
6.54
>>> recorded_number("NS(=O)(=O)c1ccccc1NC(=O)CNCCNCC(=O)O")
5.99
>>> recorded_number("O=S(=O)(Cc1ccccc1)NO")
6.34
>>> recorded_number("NS(=O)(=O)c1nc2ccc(OCCOC(=O)CNCCNCC(=O)O)cc2s1")
8.05
>>> recorded_number("C[C@H](CCC(=O)OCCc1ccc(S(N)(=O)=O)cc1)[C@H]1CC[C@H]2[C@@H]3C(=O)C[C@@H]4CC(=O)CC[C@]4(C)[C@H]3CC(=O)[C@]12C")
6.91
>>> recorded_number("C[C@H](CCC(=O)Nc1c(S(N)(=O)=O)cc(S(N)(=O)=O)c(Cl)c1Cl)[C@H]1CC[C@H]2[C@@H]3CC[C@@H]4C[C@H](O)CC[C@]4(C)[C@H]3C[C@H](O)[C@]12C")
7.00
>>> recorded_number("CN(C)CCOCCOC(=O)c1cccc(S(=O)(=O)Nc2nnc(S(N)(=O)=O)s2)c1")
8.22
>>> recorded_number("NS(=O)(=O)c1ccc(CNS(=O)(=O)C(F)(F)C(F)(F)C(F)(F)C(F)(F)C(F)(F)C(F)(F)C(F)(F)C(F)(F)F)cc1")
6.15
>>> recorded_number("NS(=O)(=O)c1nc2ccc(OCCOC(=O)CN(CCOCCOCCN(CC(=O)O)CC(=O)OCCOc3ccc4nc(S(N)(=O)=O)sc4c3)CC(=O)O)cc2s1")
8.30
>>> recorded_number("NS(=O)(=O)c1ccc(NC(=O)CN(CCN(CCN(CC(=O)O)CC(=O)O)CC(=O)O)CC(=O)O)cc1")
6.74
>>> recorded_number("NS(=O)(=O)c1ccc(CNC(=O)CN(CCN(CCN(CC(=O)O)CC(=O)NCc2ccc(S(N)(=O)=O)cc2)CC(=O)O)CC(=O)O)cc1")
7.43
>>> recorded_number("NS(=O)(=O)c1ccc(CCOC(=O)CNCC(=O)O)cc1")
6.47
>>> recorded_number("Cc1cc(C)[n+](CC(=O)NCCc2ccc(S(N)(=O)=O)cc2)c(C)c1")
7.15
>>> recorded_number("NS(=O)(=O)c1ccccc1NC(=O)c1c(F)c(F)c(F)c(F)c1F")
6.09

* * *

The entries that follow carry pKi values tested on Carbonic anhydrase 4 (Bos taurus), drawn from several published reports.
Target: Carbonic anhydrase 4 (Bos taurus)
Sequence (Q95323 whole entry): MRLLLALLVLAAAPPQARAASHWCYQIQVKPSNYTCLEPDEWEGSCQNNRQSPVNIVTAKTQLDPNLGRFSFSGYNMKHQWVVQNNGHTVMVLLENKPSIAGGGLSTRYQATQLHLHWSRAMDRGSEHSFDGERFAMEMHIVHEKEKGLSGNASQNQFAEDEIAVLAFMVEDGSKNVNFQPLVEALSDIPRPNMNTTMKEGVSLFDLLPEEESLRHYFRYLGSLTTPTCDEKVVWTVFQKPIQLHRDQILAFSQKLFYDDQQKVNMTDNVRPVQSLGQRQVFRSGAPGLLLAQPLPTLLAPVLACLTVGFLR
pKi: −log10 of the molar value.
MEASURED PARAMETER: pKi

>>> recorded_number("C[C@H](CCC(=O)Nc1cc(Cl)c(S(N)(=O)=O)cc1S(N)(=O)=O)[C@H]1CC[C@H]2[C@@H]3[C@H](O)C[C@@H]4C[C@H](O)CC[C@]4(C)[C@H]3CC[C@]12C")
6.84
>>> recorded_number("NS(=O)(=O)c1ccc(NC(=O)CN(CC(=O)O)CC(=O)O)c(Cl)c1")
6.82
>>> recorded_number("CCCC(CCC)C(=O)Nc1cc(Cl)c(S(N)(=O)=O)cc1S(N)(=O)=O")
6.88
>>> recorded_number("CN(CC(=O)Nc1ccc(S(=O)(=O)Nc2cccc(S(N)(=O)=O)c2)cc1)C(=N)N")
7.24
>>> recorded_number("NS(=O)(=O)c1ccc(CCNS(=O)(=O)c2c(F)c(F)cc(F)c2F)cc1")
7.12
>>> recorded_number("NS(=O)(=O)c1ccc(CCNC(=O)CNCCNCC(=O)O)cc1")
6.60
>>> recorded_number("O=[N+]([O-])c1cccc(S(=O)(=O)NO)c1")
7.62
>>> recorded_number("NS(=O)(=O)c1ccc(NC(=O)CNCC(=O)O)c(Br)c1")
7.24
>>> recorded_number("NS(=O)(=O)c1ccccc1NC(=O)CN(CCN(CC(=O)O)CC(=O)O)CC(=O)O")
6.10

* * *

We begin with Ki values for the protein given by its sequence, as collected from the published literature.
Target sequence: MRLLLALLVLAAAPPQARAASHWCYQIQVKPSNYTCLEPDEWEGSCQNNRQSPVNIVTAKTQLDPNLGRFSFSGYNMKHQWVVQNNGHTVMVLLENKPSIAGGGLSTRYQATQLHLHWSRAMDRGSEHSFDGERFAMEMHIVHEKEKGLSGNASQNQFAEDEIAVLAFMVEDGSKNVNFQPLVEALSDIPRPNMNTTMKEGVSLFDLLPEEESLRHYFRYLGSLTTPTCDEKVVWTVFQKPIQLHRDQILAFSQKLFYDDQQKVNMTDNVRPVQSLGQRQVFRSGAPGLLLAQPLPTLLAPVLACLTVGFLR
Consider the cut-off 90 nM. If the recorded Ki is strictly smaller, the label is 1; if not, the label is -1.

>>> category_label("NS(=O)(=O)c1ccc(NS(=O)(=O)C(F)(F)F)c(F)c1")
-1
>>> category_label("CC(=O)Nc1ccc(S(=O)(=O)Nc2nnc(S(N)(=O)=O)s2)cc1")
1
>>> category_label("NS(=O)(=O)c1cccc(NC(=O)CN(CCN(CC(=O)O)CC(=O)Nc2cccc(S(N)(=O)=O)c2)CC(=O)O)c1")
-1
>>> category_label("C[C@H](CCC(=O)Nc1ccc(S(N)(=O)=O)cc1Br)[C@H]1CC[C@H]2[C@@H]3[C@@H](O)C[C@@H]4C[C@H](O)CC[C@]4(C)[C@H]3CC[C@]12C")
1
>>> category_label("CC(C)c1cc(-c2ccccc2)cc(-c2ccccc2)[n+]1-c1ccc(S(N)(=O)=O)cc1")
-1
>>> category_label("CNCC(=O)NCCC(=O)Nc1nnc(S(N)(=O)=O)s1")
1
>>> category_label("NS(=O)(=O)c1ccc(CCOC(=O)CN(CC(=O)O)CC(=O)O)cc1")
-1
>>> category_label("CCc1cc(-c2ccccc2)cc(CC)[n+]1CC(=O)NNc1ccc(S(N)(=O)=O)cc1")
-1
>>> category_label("NS(=O)(=O)c1ccc(NSC(=S)N2CCOCC2)c(Cl)c1")
-1
